As shown below, each of these molecules has a reported IRF reporter value.
system: RAW-Dual (murine macrophage reporter line); assay: IRF reporter (Lucia luciferase) activity fold change vs agonist alone; higher = enhanced IRF activity; conditions: modulator concentration 10 µM; agonist: MPLA […]
Returns: the value as a bare number; no unit string appended.

As a guide, the following entries are already answered.
> print(dat)
                                   molecule  measurement
1  O=C(O)CSCC(=O)NC1CCSC1=O (stereo unspecified)          1.5
2   O=c1cc(-c2ccc(O)c(O)c2)oc2cc(O)cc(O)c12         0.61
3    CCCCCCCCCCCCCCCCOc1nc2ccc(C)cc2c(=O)o1         1.08
4        CNCCCC12CCC(c3ccccc31)c1ccccc12.Cl         2.48
5  NC(Cc1ccccc1)C(=O)O (stereo unspecified)          1.1

Report IRF reporter for Br.O=S(=O)(c1ccc(-c2csc(Nc3ccc(Br)cc3)n2)cc1)N1CCCC1 1.2
